- TARGET OF ASSAY: LHRH (Rattus norvegicus, UniProt P30969)
- Construct: endogenous in cells; host or cells: rat pituitary cells (own knowledge of the cited Haviv 1989 method)
- Sequence (P30969 1-327): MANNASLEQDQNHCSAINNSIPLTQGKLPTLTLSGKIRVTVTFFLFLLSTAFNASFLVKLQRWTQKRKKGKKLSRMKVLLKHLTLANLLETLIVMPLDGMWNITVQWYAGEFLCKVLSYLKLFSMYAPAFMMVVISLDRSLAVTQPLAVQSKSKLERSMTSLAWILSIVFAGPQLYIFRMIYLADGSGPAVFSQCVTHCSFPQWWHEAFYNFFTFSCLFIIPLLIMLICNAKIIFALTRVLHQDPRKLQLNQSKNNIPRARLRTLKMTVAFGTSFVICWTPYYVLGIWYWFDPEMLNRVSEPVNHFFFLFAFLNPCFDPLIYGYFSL
- EXPERIMENTAL DETAILS: in vitro test for LHRH antagonist potency (pA2)
- Assay type: cell-based
- PARTICULARS: negative logarithm of the antagonist concentration required to shift the response curve produced by the agonist leuprolide to two-fold higher concentration
Non-standard residues stand in square brackets, D forms with d. Residues, ends and D or L forms follow the SMILES beside them. *: point of attachment. Shikimoyl = O=C(C1=C[C@@H](O)[C@@H](O)[C@H](O)C1)*; Tetrahydrofuroyl(2R) = O=C([C@H]1CCCO1)*; dPhe(4-Cl) = N[C@H](Cc1ccc(Cl)cc1)C(=O)O; d2Nal = N[C@H](Cc1ccc2ccccc2c1)C(=O)O; Lys(iPr) = CC(C)NCCCC[C@H](N)C(=O)O; NMeY = CN[C@@H](Cc1ccc(O)cc1)C(=O)O; NMeF = CN[C@@H](Cc1ccccc1)C(=O)O; dCit = NC(=O)NCCC[C@@H](N)C(=O)O; hArg = N=C(N)NCCCC[C@H](N)C(=O)O; d3Pal = N[C@H](Cc1cccnc1)C(=O)O; NMeL = CN[C@@H](CC(C)C)C(=O)O; Nicotinoyl = O=C(c1cccnc1)*; 2Furoyl = O=C(c1ccco1)*; X1 = O=C([C@@H]1CCCO1)*

[
  {
    "MOLECULE": "CC(C)C[C@H](NC(=O)[C@@H](CCCCNC(=O)c1cccnc1)NC(=O)[C@H](Cc1ccc(O)cc1)N(C)C(=O)[C@H](CO)NC(=O)[C@@H](Cc1cccnc1)NC(=O)[C@@H](Cc1ccc(Cl)cc1)NC(=O)[C@@H](Cc1ccc2ccccc2c1)NC(=O)CNC(=O)c1ccco1)C(=O)N[C@@H](CCCCNC(C)C)C(=O)N1CCC[C@H]1C(=O)N[C@H](C)C(N)=O [Example 2c] (2Furoyl-G[d2Nal][dPhe(4-Cl)][d3Pal]S[NMeY][dK](Nicotinoyl)L[Lys(iPr)]P[dA]-NH2)",
    "Kb / pM": 7.94
  },
  {
    "MOLECULE": "CC(C)C[C@H](NC(=O)[C@@H](CCCCNC(=O)c1cccnc1)NC(=O)[C@H](Cc1ccc(O)cc1)N(C)C(=O)[C@@H](CO)NC(=O)[C@@H](Cc1cccnc1)NC(=O)[C@@H](Cc1ccc(Cl)cc1)NC(=O)[C@@H](Cc1ccc2ccccc2c1)NC(=O)CNC(=O)[C@@H]1CCCO1)C(=O)N[C@@H](CCCCNC(C)C)C(=O)N1CCC[C@H]1C(=O)N[C@H](C)C(N)=O",
    "Kb / pM": 1120
  },
  {
    "MOLECULE": "CC(C)C[C@H](NC(=O)[C@@H](CCCNC(N)=O)NC(=O)[C@H](Cc1ccc(O)cc1)N(C)C(=O)[C@H](CO)NC(=O)[C@@H](Cc1cccnc1)NC(=O)[C@@H](Cc1ccc(Cl)cc1)NC(=O)[C@@H](Cc1ccc2ccccc2c1)NC(=O)[C@H]1CCCO1)C(=O)N[C@@H](CCCNC(=N)N)C(=O)N1CCC[C@H]1C(=O)N[C@H](C)C(N)=O [Example 77] ({Tetrahydrofuroyl(2R)}-[d2Nal][dPhe(4-Cl)][d3Pal]S[NMeY][dCit]LRP[dA]-NH2)",
    "Kb / pM": 14.1
  },
  {
    "MOLECULE": "CC(C)C[C@@H](C(=O)N[C@@H](CCCNC(=N)N)C(=O)N1CCC[C@H]1C(=O)N[C@H](C)C(N)=O)N(C)C(=O)[C@@H](CCCCNC(=O)C1=C[C@@H](O)[C@@H](O)[C@H](O)C1)NC(=O)[C@H](Cc1ccc(O)cc1)N(C)C(=O)[C@H](CO)NC(=O)[C@@H](Cc1cccnc1)NC(=O)[C@@H](Cc1ccc(Cl)cc1)NC(=O)[C@@H](Cc1ccc2ccccc2c1)NC(=O)CNC(=O)C1=C[C@@H](O)[C@@H](O)[C@H](O)C1 [Example 18b] (Shikimoyl-G[d2Nal][dPhe(4-Cl)][d3Pal]S[NMeY][dK](Shikimoyl)[NMeL]RP[dA]-NH2)",
    "Kb / pM": 9.12
  },
  {
    "MOLECULE": "CC(C)C[C@H](NC(=O)[C@@H](CCCCNC(=O)c1cccnc1)NC(=O)[C@H](Cc1ccc(O)cc1)N(C)C(=O)[C@H](CO)NC(=O)[C@@H](Cc1cccnc1)NC(=O)[C@@H](Cc1ccc(Cl)cc1)NC(=O)[C@@H](Cc1ccc2ccccc2c1)NC(=O)CNC(=O)c1cccnc1)C(=O)N[C@@H](CCCCNC(=N)N)C(=O)N1CCC[C@H]1C(=O)N[C@H](C)C(N)=O [Example 25f] (Nicotinoyl-G[d2Nal][dPhe(4-Cl)][d3Pal]S[NMeY][dK](Nicotinoyl)L[hArg]P[dA]-NH2)",
    "Kb / pM": 23.4
  },
  {
    "MOLECULE": "CC(C)C[C@H](NC(=O)[C@@H](CCCCNC(=O)c1cccnc1)NC(=O)[C@H](Cc1ccc(O)cc1)N(C)C(=O)[C@H](CO)NC(=O)[C@@H](Cc1cccnc1)NC(=O)[C@@H](Cc1ccc(Cl)cc1)NC(=O)[C@@H](C)NC(=O)CNC(=O)[C@@H]1CCCO1)C(=O)N[C@@H](CCCCNC(C)C)C(=O)N1CCC[C@H]1C(=O)N[C@H](C)C(N)=O [Example 100] (X1-G[dA][dPhe(4-Cl)][d3Pal]S[NMeY][dK](Nicotinoyl)L[Lys(iPr)]P[dA]-NH2)",
    "Kb / pM": 21900
  },
  {
    "MOLECULE": "CC(C)C[C@H](NC(=O)[C@@H](CCCCNC(=O)C1=C[C@@H](O)[C@@H](O)[C@H](O)C1)NC(=O)[C@H](Cc1ccccc1)N(C)C(=O)[C@H](CO)NC(=O)[C@@H](Cc1cccnc1)NC(=O)[C@@H](Cc1ccc(Cl)cc1)NC(=O)[C@@H](Cc1ccc2ccccc2c1)NC(=O)CNC(=O)C1=C[C@@H](O)[C@@H](O)[C@H](O)C1)C(=O)N[C@@H](CCCNC(=N)N)C(=O)N1CCC[C@H]1C(=O)N[C@H](C)C(N)=O [Example 17] (Shikimoyl-G[d2Nal][dPhe(4-Cl)][d3Pal]S[NMeF][dK](Shikimoyl)LRP[dA]-NH2)",
    "Kb / pM": 11.2
  },
  {
    "MOLECULE": "CC(C)C[C@H](NC(=O)[C@@H](CCCNC(N)=O)NC(=O)[C@H](Cc1ccc(O)cc1)N(C)C(=O)[C@H](CO)NC(=O)[C@@H](Cc1cccnc1)NC(=O)[C@@H](Cc1ccc(Cl)cc1)NC(=O)[C@@H](Cc1ccc2ccccc2c1)NC(=O)CNC(=O)c1cccnc1)C(=O)N[C@@H](CCCNC(=N)N)C(=O)N1CCC[C@H]1C(=O)N[C@H](C)C(N)=O [Example 13c] (Nicotinoyl-G[d2Nal][dPhe(4-Cl)][d3Pal]S[NMeY][dCit]LRP[dA]-NH2)",
    "Kb / pM": 3.55
  },
  {
    "MOLECULE": "CC(C)C[C@H](NC(=O)[C@@H](CCCCNC(=O)c1cccnc1)NC(=O)[C@H](CCCCNC(=O)c1cccnc1)NC(=O)[C@H](CO)NC(=O)[C@@H](Cc1cccnc1)NC(=O)[C@@H](Cc1ccc(Cl)cc1)NC(=O)[C@@H](Cc1ccc2ccccc2c1)NC(=O)c1cccnc1)C(=O)N[C@@H](CCCCNC(C)C)C(=O)N1CCC[C@H]1C(=O)N[C@H](C)C(N)=O [Example 74] (Nicotinoyl-[d2Nal][dPhe(4-Cl)][d3Pal]SK(Nicotinoyl)[dK](Nicotinoyl)L[Lys(iPr)]P[dA]-NH2)",
    "Kb / pM": 56.2
  }
]

###

- TARGET OF ASSAY: LHRH (Rattus norvegicus)
- Construct: endogenous in cells; host or cells: rat pituitary cells (own knowledge of the cited Haviv 1989 method)
- EXPERIMENTAL DETAILS: in vitro test for LHRH antagonist potency (pA2)
- Format: cell-based
- PARTICULARS: negative logarithm of the antagonist concentration required to shift the response curve produced by the agonist leuprolide to two-fold higher concentration
- Method: Representative compounds of the present invention were evaluated in an in vitro test for LHRH antagonist potency (pA2). The test employed the method detailed in F. Haviv, et al. J. Med. Chem., 32:2340-2344 (1989). The values of pA2 are the negative logarithms of the concentration of the particular antagonist test compound required to shift the response curve produced by the agonist leuprolide to two-fold higher concentration. […]
Non-standard residues stand in square brackets, D forms with d. Residues, ends and D or L forms follow the SMILES beside them. *: point of attachment. Shikimoyl = O=C(C1=C[C@@H](O)[C@@H](O)[C@H](O)C1)*; dPhe(4-Cl) = N[C@H](Cc1ccc(Cl)cc1)C(=O)O; d2Nal = N[C@H](Cc1ccc2ccccc2c1)C(=O)O; NMeY = CN[C@@H](Cc1ccc(O)cc1)C(=O)O; dCit = NC(=O)NCCC[C@@H](N)C(=O)O; d3Pal = N[C@H](Cc1cccnc1)C(=O)O
MEASUREMENT KIND: Kb (nM)

[
  {
    "MOLECULE": "CC(C)C[C@H](NC(=O)[C@@H](CCCNC(N)=O)NC(=O)[C@H](Cc1ccc(O)cc1)N(C)C(=O)[C@H](CO)NC(=O)[C@@H](Cc1cccnc1)NC(=O)[C@@H](Cc1ccc(Cl)cc1)NC(=O)[C@@H](Cc1ccc2ccccc2c1)NC(=O)[C@@H](CO)NC(=O)C1=C[C@@H](O)[C@@H](O)[C@H](O)C1)C(=O)N[C@@H](CCCNC(=N)N)C(=O)N1CCC[C@H]1C(=O)N[C@H](C)C(N)=O [Example 13f] (Shikimoyl-[dS][d2Nal][dPhe(4-Cl)][d3Pal]S[NMeY][dCit]LRP[dA]-NH2)",
    "TARGET OF ASSAY": "LHRH (Rattus norvegicus)",
    "RECORDED VALUE": 0.0178
  }
]

Data provenance is patent US5502035A.
